tested on: fibroblast cells (3T6); experiment: Toxicity in the T40/12 kD cell assay (lactate dehydrogenase kit); type: cell-based; conditions: therapeutic index, RxIndx=LD50/B50
Output 1 (yes) for records whose Rxindx is lower than 10, 0 (no) for records at or above 10.

COMPOUND: CC(=O)Oc1c(C)c(C)c(OC(C)=O)c2ccccc12 [DH11]
ASSAY TARGET: fibroblast cells (3T6)
CLASS LABEL: 1 (yes)
--
COMPOUND: CC(C)=CCC1=C(O)C(=O)c2ccccc2C1=O [DH1]
ASSAY TARGET: fibroblast cells (3T6)
CLASS LABEL: 1 (yes)
--
COMPOUND: CC1=C(C)C(=O)c2ccccc2C1=O [DH10, 2,3-dimethyl-1,4-naphthoquinone]
ASSAY TARGET: fibroblast cells (3T6)
CLASS LABEL: 0 (no)
--
COMPOUND: CC1=CC(=O)c2ccccc2C1=O [Compound K3, 2-methyl-1,4-naphthoquinone]
ASSAY TARGET: fibroblast cells (3T6)
CLASS LABEL: 0 (no)
--
COMPOUND: Cc1cc(OS(=O)(=O)O)c2ccccc2c1OS(=O)(=O)O [DH13]
ASSAY TARGET: fibroblast cells (3T6)
CLASS LABEL: 1 (yes)
--
COMPOUND: O=C(O)c1cc(O)c2ccccc2c1O [DH5]
ASSAY TARGET: fibroblast cells (3T6)
CLASS LABEL: 0 (no)
--
COMPOUND: CC(=O)Oc1cc(C)c(OC(C)=O)c2ccccc12 [DH9]
ASSAY TARGET: fibroblast cells (3T6)
CLASS LABEL: 1 (yes)

----------
target: tau-tau binding (Homo sapiens, UniProt P10636); test: Cell-based assay I ('T40/12 kD'), production of the 12 kD fragment; settings: concentration at which production of the 12 kD band from full-length tau is reduced to 50%; read-out: B50
Sequence (P10636 1-441 isoform P10636-8): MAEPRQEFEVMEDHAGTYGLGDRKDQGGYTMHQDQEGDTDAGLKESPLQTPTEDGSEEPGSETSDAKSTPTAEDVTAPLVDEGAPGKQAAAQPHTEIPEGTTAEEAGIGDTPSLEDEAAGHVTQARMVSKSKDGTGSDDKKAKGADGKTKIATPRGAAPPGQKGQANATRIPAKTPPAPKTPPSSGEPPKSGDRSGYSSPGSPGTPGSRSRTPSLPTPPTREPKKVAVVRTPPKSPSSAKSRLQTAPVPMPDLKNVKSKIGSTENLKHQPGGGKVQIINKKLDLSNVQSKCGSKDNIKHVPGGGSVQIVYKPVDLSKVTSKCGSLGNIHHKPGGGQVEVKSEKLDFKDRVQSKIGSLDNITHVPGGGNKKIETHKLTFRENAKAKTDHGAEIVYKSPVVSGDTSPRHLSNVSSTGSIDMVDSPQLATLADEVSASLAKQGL
pIC50: −log10 of the molar value.
pIC50 reference

SMILES INPUT: CC1=CC(=O)c2ccccc2C1=O
pIC50: 5.56
//
SMILES INPUT: O=C(O)c1cc(O)c2ccccc2c1O
pIC50: 5.59
//
SMILES INPUT: CC(=O)Oc1c(C)c(C)c(OC(C)=O)c2ccccc12
pIC50: 4.83
//
SMILES INPUT: CC1=C(C)C(=O)c2ccccc2C1=O
pIC50: 5.32
//
SMILES INPUT: CC(C)=CCC1=C(O)C(=O)c2ccccc2C1=O
pIC50: 4.95
//
SMILES INPUT: Cc1cc(OS(=O)(=O)O)c2ccccc2c1OS(=O)(=O)O
pIC50: 5.24
//
SMILES INPUT: CC(=O)Oc1cc(C)c(OC(C)=O)c2ccccc12
pIC50: 5.56

----------
system: fibroblast cells (3T6); assay: Toxicity in the T40/12 kD cell assay (lactate dehydrogenase kit); type: cell-based; settings: cellular LD50, cell numbers after 24 hrs exposure
Output true for records whose LD50 is lower than 30 µM, false for records at or above 30 µM.

SMILES INPUT: CC(=O)Oc1c(C)c(C)c(OC(C)=O)c2ccccc12
CLASS LABEL: true
--
SMILES INPUT: O=C(O)c1cc(O)c2ccccc2c1O
CLASS LABEL: false
--
SMILES INPUT: CC1=CC(=O)c2ccccc2C1=O
CLASS LABEL: false
--
SMILES INPUT: CC(=O)Oc1cc(C)c(OC(C)=O)c2ccccc12
CLASS LABEL: true
--
SMILES INPUT: CC(C)=CCC1=C(O)C(=O)c2ccccc2C1=O
CLASS LABEL: false
--
SMILES INPUT: CC1=C(C)C(=O)c2ccccc2C1=O
CLASS LABEL: false
